Target or system: PI3K (Homo sapiens, UniProt P42336)
Sequence (P42336 whole entry): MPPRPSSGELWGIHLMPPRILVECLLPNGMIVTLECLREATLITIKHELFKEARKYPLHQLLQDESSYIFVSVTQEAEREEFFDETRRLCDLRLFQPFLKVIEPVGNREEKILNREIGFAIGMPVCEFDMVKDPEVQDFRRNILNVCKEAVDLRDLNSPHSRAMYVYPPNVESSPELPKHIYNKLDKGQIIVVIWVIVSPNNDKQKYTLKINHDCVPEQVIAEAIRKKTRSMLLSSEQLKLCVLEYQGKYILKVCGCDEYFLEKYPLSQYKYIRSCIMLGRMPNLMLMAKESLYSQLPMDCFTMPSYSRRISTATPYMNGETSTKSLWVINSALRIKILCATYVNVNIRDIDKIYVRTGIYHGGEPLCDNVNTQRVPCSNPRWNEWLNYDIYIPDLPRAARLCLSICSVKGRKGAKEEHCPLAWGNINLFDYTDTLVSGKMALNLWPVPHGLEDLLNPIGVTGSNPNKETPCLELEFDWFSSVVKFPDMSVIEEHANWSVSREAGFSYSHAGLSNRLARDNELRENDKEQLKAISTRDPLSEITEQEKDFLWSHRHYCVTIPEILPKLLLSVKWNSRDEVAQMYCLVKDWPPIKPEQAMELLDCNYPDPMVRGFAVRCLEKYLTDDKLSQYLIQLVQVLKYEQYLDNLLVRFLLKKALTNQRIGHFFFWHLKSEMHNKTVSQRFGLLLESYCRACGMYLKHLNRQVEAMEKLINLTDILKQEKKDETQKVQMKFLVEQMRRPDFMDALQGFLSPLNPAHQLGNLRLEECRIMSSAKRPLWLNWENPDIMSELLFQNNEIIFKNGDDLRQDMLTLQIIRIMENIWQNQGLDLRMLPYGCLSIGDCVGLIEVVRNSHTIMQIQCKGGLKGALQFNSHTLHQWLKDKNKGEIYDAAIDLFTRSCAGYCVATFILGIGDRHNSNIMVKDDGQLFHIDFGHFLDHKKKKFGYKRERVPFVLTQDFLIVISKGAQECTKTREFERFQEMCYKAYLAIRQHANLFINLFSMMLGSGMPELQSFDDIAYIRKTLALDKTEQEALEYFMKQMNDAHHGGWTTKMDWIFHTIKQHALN
Sequence (P27986 whole entry partner): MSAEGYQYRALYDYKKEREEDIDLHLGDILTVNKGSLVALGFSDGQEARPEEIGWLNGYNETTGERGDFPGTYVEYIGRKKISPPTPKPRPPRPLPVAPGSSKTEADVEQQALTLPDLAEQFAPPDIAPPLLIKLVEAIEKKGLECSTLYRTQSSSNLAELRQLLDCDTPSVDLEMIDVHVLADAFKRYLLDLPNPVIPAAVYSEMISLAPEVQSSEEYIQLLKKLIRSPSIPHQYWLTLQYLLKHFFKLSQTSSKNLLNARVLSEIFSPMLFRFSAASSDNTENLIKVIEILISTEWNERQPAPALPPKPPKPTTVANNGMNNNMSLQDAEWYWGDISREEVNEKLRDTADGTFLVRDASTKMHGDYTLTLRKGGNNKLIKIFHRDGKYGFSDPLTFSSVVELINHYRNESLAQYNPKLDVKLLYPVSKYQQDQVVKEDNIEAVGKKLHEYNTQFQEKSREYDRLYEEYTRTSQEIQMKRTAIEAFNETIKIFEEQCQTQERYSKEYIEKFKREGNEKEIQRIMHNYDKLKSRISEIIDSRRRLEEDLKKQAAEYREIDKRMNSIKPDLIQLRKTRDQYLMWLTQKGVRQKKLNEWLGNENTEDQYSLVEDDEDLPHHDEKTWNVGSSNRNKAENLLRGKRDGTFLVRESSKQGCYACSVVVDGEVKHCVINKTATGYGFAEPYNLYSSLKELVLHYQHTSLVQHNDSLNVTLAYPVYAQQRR
Assay remarks: Fluorescence polarization assay for PI3K;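 note: PI3K kinase reaction on PIP2 with ATP, 30-60 min, product sensed by GST-GRP with red probe in fluorescence polarization (mP), controls without enzyme and at zero time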
Format: biochemical
Details: PI3Kα; read-out: PI3Kα IC50
Observable: IC50 (nM)

>>> print(df.to_string())
                                    compound  observable  number
 0  CCNC(=NC#N)Nc1ccc(-c2nc(N3CCOCC3)c3cnn(C4CCN(Cc5cccnc5)CC4)c3n2)cc1 [Example 408]        IC50     916
 1  COC(=O)N1CCC(n2ncc3c(N4CCOCC4)nc(-c4ccc(NC(=O)Nc5ccc(CCNCCN)cc5)cc4)nc32)CC1 [Compound 920]        IC50       4
 2  O=C(Nc1ccc(-c2nc(N3CCOCC3)c3cnn(-c4ccccc4)c3n2)cc1)C1CCNCC1 [Compound 140]        IC50     131
 3  CC(C)(C)OC(=O)N1CCC(n2ncc3c(N4CCOCC4)nc(-c4ccc(NC(=O)Nc5nccs5)cc4)nc32)CC1 [Compound 884]        IC50     264
 4  CC#CCOC(=O)N1CCC(n2ncc3c(N4CCOCC4)nc(-c4ccc(NC(=O)NC)cc4)nc32)CC1 [Compound 801]        IC50      50
 5  COC(=O)N1CCC(n2ncc3c(N4CCOC(C)C4)nc(-c4ccc(NC(=O)NC5CC5)cc4)nc32)CC1 (stereo not drawn) [Compound 843]        IC50    1380
 6  CCOC(=O)N1CCC(n2ncc3c(N4CCOCC4)nc(-c4ccc(NC(=O)Nc5ccccc5)cc4)nc32)CC1 [Compound 814]        IC50      34
 7  O=C(NCCO)Nc1ccc(-c2nc(N3CCOCC3)c3cnn(C4CCN(CC(F)(F)F)CC4)c3n2)cc1 [Compound 784]        IC50     380
 8  CC1CN(c2nc(-c3cccc(O)c3)nc3c2cnn3-c2ccccc2)CCO1 (stereo not drawn) [Compound 943]        IC50     276
 9  CC(C)(C)OC(=O)N1CCC(n2ncc3c(N4CCOCC4)nc(-c4ccc(NC(=O)Nc5ccccn5)cc4)nc32)CC1 [Compound 769]        IC50    2190
10  O=C(N1CCCC1)N1CCC(n2ncc3c(N4CCOCC4)nc(-c4ccc5[nH]ccc5c4)nc32)CC1 [Compound 123]        IC50    1300
11  CNC(=O)Nc1ccc(-c2nc(N3CCOCC3)c3cnn(C4CCN(Cc5cnccc5OC)CC4)c3n2)cc1 [Example 391]        IC50      82
12  NNC(=O)Nc1ccc(-c2nc(N3CCOCC3)c3cnn(C4CCN(C(=O)c5cccnc5)CC4)c3n2)cc1 [Example 306]        IC50     398
13  Oc1cccc(-c2nc(N3CCOCC3)c3c(F)nn(-c4ccccc4)c3n2)c1 [Compound 964]        IC50      70
14  CNC(=O)Nc1ccc(-c2nc(N3CCOC(C)C3)c3cnn(C4CCN(C(=O)OC)CC4)c3n2)cc1 (stereo not drawn) [Compound 841]        IC50     268
